# target.entity: T1, human PD-L1 expressed on CHO-K1 cells (Genscript, Cat #M00543) (human, UniProt Q9NZQ7 19-290)
# T1 construct: also called PD-L1 cell line
# experimental.details: FACS, CHO-K1/human PD-L1 cells
metric.name: Top (best-fit value)
Lab note: record the figure alone, no unit after it.

For record 30A7B5D9 (antibody, V domains shown, Mouse mAb from hybridoma culture) VH: KVQLQQSGAELVKPGTSVKLSCKASGYTFTEYIIYWIKQRSGQGLEWIGWFYPGTGSIKYNEKFKDKATLTADKSSSTVFMELSRLTSEDSAVYFCARHEEGNLWFAYWGQGTLVTVSA VL: QIVLTQSPALMSASPGERVTMTCSASSDVSYMYWYQQKPRSSPKPWIYLTSNLASGVPARFSGSGSGTSYSLTISSMEAEDAATYYCQQWTGNPLTFGAGTKLELK the listed Top (best-fit value) is 1720
